For each of the compounds below, state its pKi.
- Target desc: 5-hydroxytryptamine receptor 3A (Homo sapiens)
- Sequence (P46098 whole entry): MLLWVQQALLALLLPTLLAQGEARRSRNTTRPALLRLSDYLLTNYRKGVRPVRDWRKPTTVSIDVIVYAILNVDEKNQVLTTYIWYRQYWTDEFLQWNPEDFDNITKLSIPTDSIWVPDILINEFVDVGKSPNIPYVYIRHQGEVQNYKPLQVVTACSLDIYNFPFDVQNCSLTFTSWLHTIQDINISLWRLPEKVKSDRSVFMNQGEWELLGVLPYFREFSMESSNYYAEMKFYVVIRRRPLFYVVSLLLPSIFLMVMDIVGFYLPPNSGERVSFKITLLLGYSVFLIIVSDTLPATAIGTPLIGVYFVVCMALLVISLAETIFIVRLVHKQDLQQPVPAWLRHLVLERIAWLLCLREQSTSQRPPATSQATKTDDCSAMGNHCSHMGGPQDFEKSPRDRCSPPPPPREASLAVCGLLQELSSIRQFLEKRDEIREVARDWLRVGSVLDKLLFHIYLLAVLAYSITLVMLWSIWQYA
- Test protocol: Displacement of [3H]GR65630 from recombinant human 5HT3 receptor transiently expressed in HEKT cells measured after 90 mins by microbeta scintillation counting method
By convention, pKi is the negative base-10 log of a molar concentration.

Quick check: pKi of FC(F)(F)c1cc(Oc2nccc3ccsc23)ccc1-c1cccc2nccn12 ?
5.12

Quick check: pKi of Cc1ncc2nccn2c1-c1ccc(Oc2nccc3occc23)cc1C(F)(F)F ?
5.04

Quick check: pKi of FC(F)(F)c1cc(Oc2nccc3occc23)ccc1-c1cccc2nccn12 ?
5.03
